experimentalSystem: T1, human CD16A-158V expressed on CHO-K1 cells (human, UniProt P08637 17-254)
T1 construct: whole, on cells; also called hCD16A-158V; CHO-K1-hCD16A-158V
T1 sequence (P08637 17-254 F176V): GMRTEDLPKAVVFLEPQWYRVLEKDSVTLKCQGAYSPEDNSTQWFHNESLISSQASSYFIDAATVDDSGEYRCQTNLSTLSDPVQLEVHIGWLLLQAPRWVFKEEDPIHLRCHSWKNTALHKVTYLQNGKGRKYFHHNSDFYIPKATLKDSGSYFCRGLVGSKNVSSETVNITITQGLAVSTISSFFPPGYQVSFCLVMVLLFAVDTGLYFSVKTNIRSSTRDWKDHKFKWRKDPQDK
experimentalDetails: flow cytometry, CHO-K1-hCD16A-158V cells, Alexa Fluor 647 anti-human IgG Fc, geometric mean
quantityMeasured: EC50 (read off the curve)

Incoming: Dear colleague, I am looking for the recorded EC50 (read off the curve) of the following binder: 45H6E8-z17 (antibody, human IgG1, V domains shown, Human IgG1 LALAPG constant region; also called HU-VH1-5 / HU-VL1-3) VH: QVQLVQSGAEVKKPGASVKVSCKVSGYTLKDYYMQWVRQAPGKGLEWIGWIDPENGDTEYAPKFQGKATMTADTSTDTAYMELSSLRSEDTAVYYCTTGGNYVDWGQGTTVTVSS VL: DIQMTQSPSFLSASVGDRVTITCKASQNVGTAVAWYQQKPGKAPKLLIYSASNRYTGVPDRFSGSGSGTDFTLTISSLQPEDFATYFCQQYSSYPLLTFGQGTRLEIK
Outgoing: ~400 pM

The measurements presented in this section are drawn from patent US20260242485A1.
